target: human GPR40 receptor (Homo sapiens); assay: IP1 accumulation measurements using the IPOne assay system; details: 1321N1 cells stably expressing human GPR40 receptor, stimulation 1 h at 37° C.
Sequence (O14842 whole entry): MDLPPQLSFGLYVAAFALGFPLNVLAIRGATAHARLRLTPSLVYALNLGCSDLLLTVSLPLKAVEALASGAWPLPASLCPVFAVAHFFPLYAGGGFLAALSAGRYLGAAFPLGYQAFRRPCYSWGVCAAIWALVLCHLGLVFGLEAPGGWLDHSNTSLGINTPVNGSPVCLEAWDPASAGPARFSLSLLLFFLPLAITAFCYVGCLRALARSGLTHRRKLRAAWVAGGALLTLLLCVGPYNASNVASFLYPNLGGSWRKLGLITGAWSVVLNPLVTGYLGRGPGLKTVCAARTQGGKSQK
Attribute: pEC50
API: returns pEC50 as number; meaning -log10 of concentration in mol/L.

Worked examples follow.
- structure smiles: "Cc1cc(C(N)=O)cc(C)c1-c1ccc(F)c(CNc2ccc([C@H]3C[C@@H]3C(=O)O)cn2)c1"
  reported measurement: 6.21
- structure smiles: "COc1cc(F)c(-c2ccc(F)c(CNc3ccc([C@H]4C[C@@H]4C(=O)O)cn3)c2)c(F)c1"
  reported measurement: 5.68
- structure smiles: "Cc1cc(-c2cc(=O)n(C)cn2)cc(C)c1-c1ccc(F)c(CNc2ccc([C@H]3C[C@@H]3C(=O)O)cn2)c1"
  reported measurement: 7.27

Req: Need pEC50, item COc1cc(OC)c(-c2ccc(F)c(CNc3ccc([C@H]4C[C@@H]4C(=O)O)cn3)c2)c(OC)c1
Resp: 6.06

Req: Moving on to Cc1cc(OCCCS(C)(=O)=O)cc(C)c1-c1cccc(CNc2ccc([C@H]3C[C@@H]3C(=O)O)cn2)c1
Resp: 7.30

Req: Now give it for O=C(O)[C@H]1C[C@@H]1c1ccc(NCc2cc(-c3c(Cl)cccc3Cl)ccc2F)nc1 too.
Resp: 6.98

Req: Now consider COc1cc(OC)c(Cl)c(-c2cc(CNc3ccc([C@H]4C[C@@H]4C(=O)O)cn3)c(F)cc2F)c1Cl and answer again.
Resp: 7.30
